Can you tell me IC50 for the items I'm about to list?
system: BHK-21 cells; assay: Anti-fibrosis activity test: inhibition of BHK-21 cell proliferation (CCK-8); format: cell-based; settings: Mesocricetus auratus, BHK-21, 48 h, CCK-8, 48 hours after administration

Working through the 4 compounds below one at a time, give IC50 for each.
1. N#Cc1cccc2c(=O)c3c([nH]c12)-c1cccn1C3=O [Compound 447a]
2. O=C1c2c(nc3cc(N4CCNCC4)ccc3c2O)-c2cccn21 [Compound 319b]
3. O=C1c2c(n(Cc3cccc(F)c3)c3cc(F)ccc3c2=O)-c2cccn21 [Compound 491a]
4. O=C1c2c(nc3cc(N4CCNCC4)c(OC(F)(F)F)cc3c2O)-c2cccn21 [Compound 409b]

a:
0.05 to 5 mM
0.05 to 5 mM
< 0.05 mM
0.05 to 5 mM

Form field, IC50 with BHK-21 cells, item N#Cc1ccc2c(c1)c(=O)c1c(n2Cc2ccc(F)cc2)-c2cccn2C1=O [Compound 624a] : < 0.05 mM

----------
Can you tell me IC50 for the items I'm about to list?
system: BHK-21 cells; assay: Anti-fibrosis activity test: inhibition of BHK-21 cell proliferation (CCK-8); type: cell-based; conditions: Mesocricetus auratus, BHK-21, 48 h, CCK-8, 48 hours after administration

O=C1c2c(nc3ccccc3c2OCc2ccc(-c3ccccc3)cc2)-c2cccn21 [Compound 649b]: 0.05 to 5 mM

Working through the 5 compounds below one at a time, give IC50 for each.
1. N#Cc1ccc(Cn2c3c(c(=O)c4cc(C#N)ccc42)C(=O)n2cccc2-3)cc1 [Compound 626a]
2. N#Cc1ccc2nc3c(c(Oc4ccc(F)cc4)c2c1)C(=O)n1cccc1-3 [Compound 199b]
3. N#Cc1cc2c(OCc3ccc(Cl)cc3)c3c(nc2cc1N1CCNCC1)-c1cccn1C3=O [Compound 640b]
4. O=C1c2c(n(Cc3ccccc3Cl)c3cccc(C(F)(F)F)c3c2=O)-c2cccn21 [Compound 472a]
5. O=C1c2c(nc3c(O)cccc3c2O)-c2cccn21 [Compound 445b]

a:
1: 0.05 to 5 mM; 2: 0.05 to 5 mM; 3: 0.05 to 5 mM; 4: < 0.05 mM; 5: 0.05 to 5 mM

Working through the 2 compounds below one at a time, give IC50 for each.
1. O=C1c2c(n(Cc3ccc(Cl)cc3)c3cc(N4CCNCC4)c(F)cc3c2=O)-c2cccn21 [Compound 632a]
2. O=C1c2c(n(Cc3ccc(F)cc3)c3cccc(Cl)c3c2=O)-c2cccn21 [Compound 474a]

a:
1: 0.05 to 5 mM; 2: < 0.05 mM

Working through the 3 compounds below one at a time, give IC50 for each.
1. COc1cccc(COc2c3c(nc4ccccc24)-c2cccn2C3=O)c1 [Compound 610b]
2. O=C1c2c(n(Cc3ccc(F)cc3)c3c(F)c(N4CCNCC4)ccc3c2=O)-c2cccn21 [Compound 485a]
3. O=C1c2c(nc3c(Cl)cccc3c2OCc2ccc(F)cc2)-c2cccn21 [Compound 481b]

a:
1: 0.05 to 5 mM; 2: 0.05 to 5 mM; 3: 0.05 to 5 mM

Working through the 2 compounds below one at a time, give IC50 for each.
1. CCOc1c2c(nc3cc(N4CCNCC4)c(F)cc13)-c1cccn1C2=O [Compound 329b]
2. O=C1c2c(nc3cc(Cl)ccc3c2OCc2ccccc2F)-c2cccn21 [Compound 504b]

a:
1: 0.05 to 5 mM; 2: 0.05 to 5 mM

----------
test system: human hepatic stellate cells LX-2; assay: Anti-fibrosis activity test: inhibition of proliferation of human hepatic stellate cells LX-2 (CCK-8); format: cell-based; details: Homo sapiens, 48 h, human hepatic stellate cells LX-2, CCK-8, 48 hours
reported.property: IC50

O=C1c2c(n(Cc3ccccc3Cl)c3c(C(F)(F)F)cccc3c2=O)-c2cccn21 [Compound 457a]: < 0.05 mM

Working through the 3 compounds below one at a time, give IC50 for each.
1. O=C1c2c(nc3c(F)c(N4CCNCC4)ccc3c2OCc2ccc(Cl)cc2)-c2cccn21 [Compound 484b]
2. CC(C)CCOc1c2c(nc3ccccc13)-c1cccn1C2=O
3. O=C1c2c(nc3ccc(F)cc3c2OCCc2ccccc2)-c2cccn21 [Compound 141b]

a:
1. 0.05 to 5 mM
2. 0.05 to 5 mM
3. 0.05 to 5 mM

Working through the 2 compounds below one at a time, give IC50 for each.
1. CC(C)=CCOc1c2c(nc3cc(N4CCNCC4)c(F)cc13)-c1cccn1C2=O [Compound 354b]
2. Cc1ccc(Cn2c3c(c(=O)c4ccccc42)C(=O)n2cccc2-3)cc1 [Compound 604a]

a:
1: 5 to 20 mM; 2: 0.05 to 5 mM

Working through the 2 compounds below one at a time, give IC50 for each.
1. O=C1c2c(nc3cc(N4CCNCC4)c(C(F)(F)F)cc3c2O)-c2cccn21 [Compound 397b]
2. O=C1c2c(nc3c(Cl)cccc3c2OCc2ccccc2F)-c2cccn21 [Compound 460b]

a:
["0.05 to 5 mM", "0.05 to 5 mM"]

----------
Test system: BHK-21 cells
Assay: Anti-fibrosis activity test: inhibition of BHK-21 cell proliferation (CCK-8)
Type: cell-based
Conditions: Mesocricetus auratus, BHK-21, 48 h, CCK-8, 48 hours after administration
Experimental: BHK-21 cells in exponential growth phase were selected. After the fusion growth reached 85-95%, normal passage method was utilized to digest and collect the cells, followed by cell counting and adjusting the cell density to 2×10^4 cells/mL. […] 10 μL of CCK-8 solution ( 1/10 of the volume of the culture solution) was added to each well 48 hours after the administration, and incubated for 2 hours. The absorbance (A) of each well was determined by a microplate reader at 450 nm wavelength. […]
reported.property: IC50

O=C1c2c(n(CCCO)c3ccccc3c2=O)-c2cccn21 [Compound 16a]: 0.05 to 5 mM
N#Cc1ccc2c(OCc3ccccc3F)c3c(nc2c1)-c1cccn1C3=O [Compound 516b]: 0.05 to 5 mM
O=C1c2c(n(Cc3ccc(Cl)cc3)c3cc(Cl)ccc3c2=O)-c2cccn21 [Compound 508a]: 0.05 to 5 mM

Working through the 4 molecules below one at a time, give IC50 for each.
1. N#Cc1ccc2nc3c(c(OCc4ccc(F)cc4)c2c1)C(=O)n1cccc1-3 [Compound 624b]
2. N#Cc1ccc2c(=O)c3c([nH]c2c1)-c1cccn1C3=O [Compound 512a]
3. O=C1c2c(nc3cccc(F)c3c2OCc2ccc(Cl)cc2)-c2cccn21 [Compound 471b]
4. CC(C)(C)Cn1c2c(c(=O)c3ccccc31)C(=O)n1cccc1-2 [Compound 656a]

a:
1. 0.05 to 5 mM
2. 0.05 to 5 mM
3. 0.05 to 5 mM
4. 0.05 to 5 mM

----------
Can you tell me IC50 for the items I'm about to list?
Test system: BHK-21 cells
Test: Anti-fibrosis activity test: inhibition of BHK-21 cell proliferation (CCK-8)
Assay type: cell-based
Conditions: Mesocricetus auratus, BHK-21, 48 h, CCK-8, 48 hours after administration
Experimental: BHK-21 cells in exponential growth phase were selected. After the fusion growth reached 85-95%, normal passage method was utilized to digest and collect the cells, followed by cell counting and adjusting the cell density to 2×10^4 cells/mL. […] 10 μL of CCK-8 solution ( 1/10 of the volume of the culture solution) was added to each well 48 hours after the administration, and incubated for 2 hours. The absorbance (A) of each well was determined by a microplate reader at 450 nm wavelength. […]

Here's what some known entries look like.
O=C1c2c(nc3ccccc3c2OCc2cccc([N+](=O)[O-])c2)-c2cccn21 [Compound 583b]: 0.05 to 5 mM
O=C1c2c(nc3ccccc3c2OCCF)-c2cccn21 [Compound 653b]: 0.05 to 5 mM
O=C1c2c(n(Cc3cccc(C(F)(F)F)c3)c3ccccc3c2=O)-c2cccn21 [Compound 598a]: 0.05 to 5 mM
O=C1c2c(n(Cc3ccc(F)c(F)c3F)c3ccccc3c2=O)-c2cccn21 [Compound 584a]: < 0.05 mM
O=C1c2c(nc3ccccc3c2OCc2ccc(F)c(Cl)c2)-c2cccn21 [Compound 603b]: 0.05 to 5 mM

Working through the 5 compounds below one at a time, give IC50 for each.
1. O=C1c2c(n(Cc3ccc(F)cc3F)c3ccccc3c2=O)-c2cccn21 [Compound 578a]
2. O=C1c2c(nc3ccc(OC(F)(F)F)cc3c2Oc2ccc(Cl)cc2)-c2cccn21 [Compound 300b]
3. O=C1c2c(n(Cc3ccc(Cl)cc3)c3cccc(F)c3c2=O)-c2cccn21 [Compound 471a]
4. Cn1c2c(c(=O)c3cc(F)ccc31)C(=O)n1cccc1-2 [Compound 157a]
5. O=C1c2c(nc3ccccc3c2OCc2ccccc2I)-c2cccn21 [Compound 576b]

a:
1. 0.05 to 5 mM
2. 0.05 to 5 mM
3. 0.05 to 5 mM
4. 5 to 20 mM
5. 0.05 to 5 mM

Working through the 7 compounds below one at a time, give IC50 for each.
1. O=C1c2c(nc3ccccc3c2OCc2cccc(I)c2)-c2cccn21 [Compound 608b]
2. O=C1c2c(nc3ccccc3c2OCc2ccc(I)cc2)-c2cccn21 [Compound 575b]
3. O=C1c2c(n(Cc3ccc(F)cc3)c3c(F)cccc3c2=O)-c2cccn21 [Compound 452a]
4. N#Cc1ccccc1-c1ccc(COc2c3c(nc4cc(N5CCNCC5)c(F)cc24)-c2cccn2C3=O)cc1 [Compound 638b]
5. O=C(O)c1ccccc1-c1ccc(Cn2c3c(c(=O)c4ccccc42)C(=O)n2cccc2-3)cc1 [Compound 81a]
6. CC(C)(C)c1ccc(COc2c3c(nc4ccccc24)-c2cccn2C3=O)cc1 [Compound 605b]
7. O=C1c2c(nc3ccccc3c2OCc2ccc(F)cc2)-c2cccn21 [Compound 588b]

a:
1. 0.05 to 5 mM
2. 0.05 to 5 mM
3. 0.05 to 5 mM
4. 0.05 to 5 mM
5. < 0.05 mM
6. 0.05 to 5 mM
7. 0.05 to 5 mM

Where these numbers come from: patent US11040028B2
